biological target: flag-tagged HIF1α (AA 786-826) / His6-tagged p300 (AA 323-423) complex (Homo sapiens); construct: His6-tagged p300 (AA 323-423); made in house; host or cells: E. coli (pETDuet vector); experiment: HIF1α p300 displacement assay (TR FRET, +CHAPS); assay type: binding; settings: read-out: IC50 (nM) (HIF1α_p300 Displacement + CHAPS)
Bridge positions count the residues as written; N and C are the ends. Square brackets hold non-standard residues; d marks the D form. Peptide text beside a SMILES is read from it. R8 = C=CCCCCCC[C@@](C)(N)C(=O)O; S5 = C=CCCC[C@](C)(N)C(=O)O; Nle = CCCC[C@H](N)C(=O)O
Observable: IC50

INSERT INTO assay_data (compound, reading) VALUES
  ('CC[C@H](C)[C@H](NC(=O)[C@H](Cc1ccccc1)NC(C)=O)C(=O)N[C@@H](CC(=O)O)C(=O)N[C@@H](CCC(=O)O)C(=O)N[C@]1(C)CCCCCCC=CCCC[C@@](C)(C(=O)N[C@@H](CCC(=O)O)C(=O)N[C@@H](CCSC)C(=O)N[C@@H](C)C(=O)N[C@@H](CC(C)C)C(=O)N[C@@H](CC(=O)O)C(N)=O)NC(=O)[C@H](C(C)C)NC(=O)[C@H](CC(C)C)NC(=O)[C@H](CO)NC(=O)[C@H](CCSC)NC(=O)[C@H](CC(C)C)NC(=O)[C@H](C(C)C)NC1=O [SP-176] (Ac-FIDE[R8]VLMSLV[S5]EMALD-NH2; staple 5-12)', '> 700 nM');

Please turn your attention to the following entry.
Query string: # input compound: CCCC[C@H](NC(=O)[C@H](CC(C)C)NC(=O)[C@@H](NC(=O)[C@H](CCC(=O)O)NC(=O)[C@H](CCC(=O)O)NC(=O)[C@H](CC(=O)O)NC(=O)[C@@H](NC(=O)[C@H](Cc1ccccc1)NC(C)=O)[C@@H](C)CC)C(C)C)C(=O)N[C@@]1(C)CCCC=CCCC[C@@](C)(C(=O)N[C@@H](CCCC)C(=O)N[C@@H](C)C(=O)N[C@@H](CC(C)C)C(N)=O)NC(=O)[C@H]([C@@H](C)CC)NC(=O)[C@H](C(C)C)NC(=O)[C@H](Cc2ccccc2)NC1=O [SP-219] (Ac-FIDEEVL[Nle][S5]FVI[S5][Nle]AL-NH2; staple 9-13) ; wanted: its IC50
Result string: 400 to 700 nM

The values you see were collected from patent US20190225650A1.
